System: Fibroblast
Test: Incucyte cell viability with human fibroblast; note: filed as whole numbers so only -1 and 0 and 1 occur
Assay type: toxicity, cell-based
Conditions: 24 h, 10 µM, compound concentration 10 uM, replicate number 1, timepoint 24 hours
Measured Growth Rate, listed per entry for reference.
Would you mind answering with just the numeric figure?

Consider the reported Growth Rate for these compounds:
| COMPOUND | MEASURED_VALUE |
| --- | --- |
| Cc1c(C(=O)O)cc(-c2ccc(C3CCNCC3)cc2)c2ccc(-c3ccc(C(F)(F)F)cc3)cc12.Cl | 0 |
| S=C(NCCCc1c[nH]cn1)NCCCN(Cc1ccc(Cl)c(Cl)c1)c1ccc(Br)cn1 | 0 |
| CNC(=O)c1ccc(Nc2nc(OC3CCCC3)c3c(-c4ccc5nc(C)oc5c4)c[nH]c3n2)c(OC)c1 | 0 |
| CCOc1cc2ncc(C#N)c(Nc3ccc(OCc4ccccn4)c(Cl)c3)c2cc1NC(=O)/C=C/CN(C)C [NERATINIB] | 0 |
| C=C1/C(=C\C=C2/CCC[C@]3(C)[C@@H]([C@H](C)/C=C/[C@H](C)C(C)C)CC[C@@H]23)C[C@@H](O)C[C@@H]1O [DOXERCALCIFEROL] | 0 |

The measured Growth Rate associated with C=CCn1c(=O)c2cnc(Nc3ccc(N4CCN(C)CC4)cc3)nc2n1-c1cccc(C(C)(C)O)n1 [ADAVOSERTIB] reads 0

Lookup result for COc1cc2c(CCNC(C)=O)c[nH]c2cc1Cl ; measured Growth Rate: 1

# Growth Rate of Cc1c(NC(=O)c2cc(C(N)=O)nc3cc(F)ccc23)c(C(F)(F)F)nn1Cc1ccc(C#N)cc1 [BAY-876] = 0

Looking up COc1ccnc(N2CCC3(CCCN(Cc4c[nH]c5ccccc45)C3=O)CC2)n1 , I found its Growth Rate recorded as 0

Noted for Cc1cc([C@@H](C)Nc2cccc(-c3cc(C)c(C(=O)N[C@@H](C)C(=O)O)c(C)c3)c2)ccc1Cl : its Growth Rate reads 0

For record c1ccc(Nc2nc3c(s2)CCCc2[nH]ncc2-3)nc1 the listed Growth Rate is 0

So, CC(C)NC(=O)c1ccc(C#Cc2ccncc2)cn1 ? Its Growth Rate was 1

====

Listing of recorded Population Tubulin-Different-Phenotype (%) by entry.
System: Fibroblast
Experiment: Multiplex assay against human fibroblast
Assay type: toxicity, cell-based
Conditions: 12 h, 10 µM, compound concentration 10 uM, replicate 1
Numeric only. Scale: %

| SMI | READOUT_UNITS | MEASURED_VALUE |
| --- | --- | --- |
| CCn1cc(-c2ccnc3[nH]c(-c4cccc(CN(C)C)c4)cc23)c(-c2ccc(NC(=O)N(C)C)cc2)n1 | % | 27 |
| O=C1NC(=O)C(c2cnc3ccccn23)=C1c1cn2c3c(cc(F)cc13)CN(C(=O)N1CCCCC1)CC2 | % | 86 |
| CCCS(=O)(=O)Nc1ccc(F)c(C(=O)c2c[nH]c3ncc(Cl)cc23)c1F | % | 5 |

Summary line: O=C(Cc1ccc(-c2ccc(OCCN3CCOCC3)cc2)cn1)NCc1ccccc1 , Fibroblast, reported Population Tubulin-Different-Phenotype (%) = 28

Considering Cc1cc(C)c(S(=O)(=O)N(Cc2ccc(-c3cccc(S(C)(=O)=O)c3)cc2)Cc2ccc(C(F)(F)F)o2)c(C)c1 , its Population Tubulin-Different-Phenotype (%) with Fibroblast was recorded as 74

The molecule CCN1CCN(Cc2ccc(Nc3ncc(F)c(-c4cc(F)c5nc(C)n(C(C)C)c5c4)n3)nc2)CC1.CS(=O)(=O)O , tested on Fibroblast, showed Population Tubulin-Different-Phenotype (%) of 47

====

Test system: HEK-293T
Assay: Multiplex assay against HEK293T
Assay type: toxicity, cell-based
Settings: human, 24 h, 1 µM, compound concentration 1 uM, replicate 2
Labelling field: enter criterion met if recorded Population Apoptotic (%) is less than 20%. Enter criterion not met if it equals or exceeds that cut-off.

Use the examples below as a reference point.
| MOLECULE | ASSIGNED_CLASS |
| --- | --- |
| CNc1cc(Oc2cc(C(=O)Nc3cc(N4CCN(C)CC4)cc(C(F)(F)F)c3)ccc2C)ncn1 | criterion not met |
| CCOc1cc(C(=O)N2CCC(N3CCN(C)CC3)CC2)ccc1Nc1ncc2c(n1)N(C1CCCC1)c1ccccc1C(=O)N2C | criterion not met |
| CCCS(=O)(=O)Nc1ccc(F)c(C(=O)c2c[nH]c3ncc(Cl)cc23)c1F | criterion met |
| C=C1/C(=C\C=C2/CCC[C@]3(C)[C@@H]([C@H](C)/C=C/[C@H](C)C(C)C)CC[C@@H]23)C[C@@H](O)C[C@@H]1O | criterion met |
| CN1C2CCC1CC(OC(c1ccc(F)cc1)c1ccc(F)cc1)C2.Cl (stereo not drawn) | criterion not met |

## Task # TODO verify Population Apoptotic (%) < 20% strictly for this molecule: CCOC(=O)c1c(C)[nH]c2ccc3c(c12)CN1CCc2cc(OC)ccc2C1O3 (stereo not drawn)
## Result criterion not met

## Task Is the reported Population Apoptotic (%) for CCc1cccc(CC)c1NC(=O)c1nn(C)c2c1CCc1cnc(Nc3ccc(C(=O)NC4CCN(C)CC4)cc3OC(F)(F)F)nc1-2 strictly below 20%?
## Result criterion not met

====

Test system: U2OS
Assay: Multiplex assay against U2OS
Format: toxicity, cell-based
Details: human, 12 h, 1 µM, compound concentration 1 uM, replicate 2
Assign class by Population Apoptotic (%): not lower than 40% means True; lower than 40% means False.

Use the examples below as a reference point.
| SMI | ASSIGNED_CLASS |
| --- | --- |
| Cl.Oc1ccc2c3c1O[C@H]1c4[nH]c5c(c4C[C@@]4(O)[C@@H](C2)N(CC2CC2)CC[C@]314)C[C@@]1(O)[C@H]2Cc3ccc(O)c4c3[C@@]1(CCN2CC1CC1)[C@H]5O4 | True |
| COc1ccc(S(=O)(=O)N(CCO)c2ccccc2CN(C)C/C=C/c2ccc(Cl)cc2)cc1.O=P(O)(O)O | True |
| CCOc1cc(C(=O)N2CCC(N3CCN(C)CC3)CC2)ccc1Nc1ncc2c(n1)N(C1CCCC1)c1ccccc1C(=O)N2C | True |
| Cl.O=C(c1ccc(Nc2nccc(-c3cc4ccccc4s3)n2)cc1)N1CCC(N2CCCC2)CC1 | False |
| O=C(Nc1ccc(Cl)cc1)Nc1cccc(-c2cccc(N3CCCC3)n2)c1 | False |
| O=C(Nc1cccnn1)N1CCC(=Cc2cccc(Oc3ccc(C(F)(F)F)cn3)c2)CC1 | False |

## Task Confirm if Population Apoptotic (%) reported for the molecule CNc1cc(Oc2cc(C(=O)Nc3cc(N4CCN(C)CC4)cc(C(F)(F)F)c3)ccc2C)ncn1 is 40% or above.
## Result True

====

Test system: HEK-293T
Test: Multiplex assay against HEK293T
Format: toxicity, cell-based
Settings: human, 12 h, 10 µM, compound concentration 10 uM, replicate 1
Population Mitochondria Different-Phenotype (%) listing for selected compounds.
Write it as a number; the unit % goes unstated.

Recorded results for 3 compounds are shown here.
| COMPOUND | ASSAYED_TARGET | READOUT_UNITS | MEASURED_VALUE |
| --- | --- | --- | --- |
| O=C1NC(=O)C(c2cnc3ccccn23)=C1c1cn2c3c(cc(F)cc13)CN(C(=O)N1CCCCC1)CC2 | HEK-293T | % | 100 |
| CCCS(=O)(=O)c1nc(NC2CC2)cc(-c2ccc3c(ccn3C3CC(C)(C)NC(C)(C)C3)c2)n1 | HEK-293T | % | 16 |
| CCOC(=O)c1c(C)[nH]c2ccc3c(c12)CN1CCc2cc(OC)ccc2C1O3 (stereo unspecified) | HEK-293T | % | 100 |

The compound listed as Cc1ccc(C(=O)Nc2cccc(C(F)(F)F)c2)cc1Nc1nc(-c2cccnc2)nc2c1cnn2C has a reported Population Mitochondria Different-Phenotype (%) of 91

What the record says about CCn1cc(-c2ccnc3[nH]c(-c4cccc(CN(C)C)c4)cc23)c(-c2ccc(NC(=O)N(C)C)cc2)n1 : Population Mitochondria Different-Phenotype (%) is 32

What the record says about CCOc1cc(C(=O)N2CCC(N3CCN(C)CC3)CC2)ccc1Nc1ncc2c(n1)N(C1CCCC1)c1ccccc1C(=O)N2C : Population Mitochondria Different-Phenotype (%) is 95

Field Population Mitochondria Different-Phenotype (%) (entry CCn1c(=O)c(-c2ccc(-c3cncs3)cc2Cl)cc2cnc(Nc3ccc(N4CCN(C)CC4)cc3)nc21 ) reads 93

The recorded Population Mitochondria Different-Phenotype (%) for entry CNC(=O)c1ccc(Nc2nc(OC3CCCC3)c3c(-c4ccc5nc(C)oc5c4)c[nH]c3n2)c(OC)c1 equals 13

====

Property: Population Mitotic Cells (%); scope: individual molecules
System: U2OS
Assay: Multiplex assay against U2OS
Assay type: toxicity, cell-based
Settings: human, 12 h, 10 µM, compound concentration 10 uM, replicate 1
The reply should contain only the number, in %.

Previously resolved entries follow.
| SMI | READOUT_UNITS | MEASURED_VALUE |
| --- | --- | --- |
| CCc1cccc(CC)c1NC(=O)c1nn(C)c2c1CCc1cnc(Nc3ccc(N4CCN(C)CC4)cc3OC)nc1-2 | % | 73 |
| C=C1/C(=C\C=C2/CCC[C@]3(C)[C@@H]([C@H](C)/C=C/[C@H](C)C(C)C)CC[C@@H]23)C[C@@H](O)C[C@@H]1O | % | 63 |

Switching to the query record.
Given the molecule COC(=N)c1nc2ccc3ncnc(Nc4ccc(OC)cc4F)c3c2s1 and test system U2OS, the measured Population Mitotic Cells (%) is 62
